Assignment: determine reported binding signal (PBM E-score (-0.5 to 0.5)) for the given sequences.
Target: Y48G1C.6 (Y48G1C.6) (Caenorhabditis elegans)
Sequence: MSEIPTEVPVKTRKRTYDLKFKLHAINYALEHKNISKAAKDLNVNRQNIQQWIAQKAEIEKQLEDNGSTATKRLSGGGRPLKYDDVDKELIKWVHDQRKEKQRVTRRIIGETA

[ask] For the sequence shown here, ACTTGCAG (double strand) [8-mer ACTTGCAG] , give the reported binding signal (PBM E-score (-0.5 to 0.5)).
[reply] 0.494

[ask] Next sequence: GCATGCAA (double strand) [8-mer GCATGCAA]
[reply] 0.496

[ask] Next sequence: ATGCAAGA (double strand) [8-mer ATGCAAGA]
[reply] 0.495

[ask] Next sequence: CCTGCAAG (double strand) [8-mer CCTGCAAG]
[reply] 0.493

[ask] Next sequence: CATGCAAG (double strand) [8-mer CATGCAAG]
[reply] 0.496

Return reported binding signal (PBM E-score (-0.5 to 0.5)) values for all items listed beneath this line.
1. CTTGCACC (double strand) [8-mer CTTGCACC]
2. AGTGCAAG (double strand) [8-mer AGTGCAAG]
3. CTGCAAGA (double strand) [8-mer CTGCAAGA]
4. ATCTTGCA (double strand) [8-mer ATCTTGCA]
5. ACTGCAAG (double strand) [8-mer ACTGCAAG]
6. AACTTGCA (double strand) [8-mer AACTTGCA]

[reply]
[0.494, 0.493, 0.494, 0.495, 0.493, 0.494]
